Reference source for all entries: ChEMBL document CHEMBL1135874

Target: UniProtKB Q62035
Assay: Antagonism of Platelet activating factor (PAF)in mice after Intravenous administration, assayed by PAF-induced death
Assay type: functional, organism-based
Cut-off 0.5 mg/kg on ED50: below means MET, at or above means NOT MET.

In the record for CCOC(=O)CCCCO/N=C(/c1cccnc1)c1cccc(CN2CCc3c(sc4c3C(c3ccccc3Cl)=NC(C)c3nnc(C)n3-4)C2)c1 (centres undefined) , is ED50 less than 0.5 mg/kg?
MET

In the record for CCOC(=O)CCCCO/N=C(\c1ccc(COCC(=O)N2CCc3c(sc4c3C(c3ccccc3Cl)=NC(C)c3nnc(C)n3-4)C2)cc1)c1cccnc1 (centres undefined) , is ED50 less than 0.5 mg/kg?
NOT MET

In the record for Cc1nnc2n1-c1sc3c(c1C(c1ccccc1Cl)=NC2C)CCNC3 (centres undefined) , is ED50 less than 0.5 mg/kg?
NOT MET

In the record for Cc1nnc2n1-c1sc3c(c1C(c1ccccc1Cl)=NC2C)CCN(Cc1cccc(/C(=N\OCCCCC(=O)OCCN2CCOCC2)c2cccnc2)c1)C3 (centres undefined) , is ED50 less than 0.5 mg/kg?
NOT MET

In the record for CCOC(=O)CCCCO/N=C(\c1ccc(CN2CCc3c(sc4c3C(c3ccccc3Cl)=NC(C)c3nnc(C)n3-4)C2)cc1)c1cccnc1 (centres undefined) , is ED50 less than 0.5 mg/kg?
NOT MET

* * *

The following compounds are shown together with reported ED50 values.
Biological target: Thromboxane-A synthase (Rattus norvegicus)
Test: Thromboxane synthase inhibitor (TxSI) activity assessed by ex vivo inhibition of serum TXB2 production in rat after Intravenous administration
Assay type: functional, organism-based
Return type: number; implicit unit mg/kg.

# example entries with known answers
| compound | ED50 (mg/kg) |
| --- | --- |
| CCOC(=O)CCCCO/N=C(/c1cccnc1)c1cccc(CCCCN2CCc3c(sc4c3C(c3ccccc3Cl)=NC(C)c3nnc(C)n3-4)C2)c1 (stereo not drawn) | 0.53 |
| CCOC(=O)CCCCO/N=C(\c1ccccc1)c1cccnc1 | 0.01 |
| CCOC(=O)CCCC/C=C(\c1ccc(CN2CCc3c(sc4c3C(c3ccccc3Cl)=NC(C)c3nnc(C)n3-4)C2)cc1)c1cccnc1 (stereo not drawn) | 1 |
| Cc1nnc2n1-c1sc3c(c1C(c1ccccc1Cl)=NC2C)CCN(Cc1cccc(/C(=N\OCCCCC(=O)OCCN2CCOCC2)c2cccnc2)c1)C3 (stereo not drawn) | 0.77 |

ED50 reading for CCOC(=O)CCCCO/N=C(/c1cccnc1)c1cccc(CN2CCc3c(sc4c3C(c3ccccc3Cl)=NC(C)c3nnc(C)n3-4)C2)c1 (stereo not drawn) : 0.1

ED50 reading for `O=C(O)CCCC/C=C(/c1ccccc1)c1cccnc1` : 0.01

* * *

The following compounds are shown together with reported ED50 values.
Molecular target: Platelet-activating factor receptor (Mus musculus) (UniProt Q62035)
Sequence (Q62035 whole entry): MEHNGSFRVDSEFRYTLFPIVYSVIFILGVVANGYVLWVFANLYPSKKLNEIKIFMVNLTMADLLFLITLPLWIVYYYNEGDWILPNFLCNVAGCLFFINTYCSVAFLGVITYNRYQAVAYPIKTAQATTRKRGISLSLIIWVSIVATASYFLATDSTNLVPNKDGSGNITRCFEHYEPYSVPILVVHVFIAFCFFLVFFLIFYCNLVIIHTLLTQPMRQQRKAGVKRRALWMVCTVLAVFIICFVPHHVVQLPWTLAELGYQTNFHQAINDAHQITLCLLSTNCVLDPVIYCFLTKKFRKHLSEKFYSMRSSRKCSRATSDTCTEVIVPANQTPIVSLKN
Test: Antagonism of Platelet activating factor (PAF) activity in mice after oral administration, assayed by PAF-induced death
Type: functional, organism-based

# example entries with known answers
| compound | ED50 |
| --- | --- |
| CCOC(=O)CCCCO/N=C(/c1cccnc1)c1cccc(CN2CCc3c(sc4c3C(c3ccccc3Cl)=NCc3nnc(C)n3-4)C2)c1 | > 10 mg/kg |
| Cc1nnc2n1-c1sc3c(c1C(c1ccccc1Cl)=NC2C)CCN(Cc1cccc(/C(=N\OCCCCC(=O)OCCN2CCOCC2)c2cccnc2)c1)C3 (stereo unspecified) | > 10 mg/kg |
| CCOC(=O)CCCCO/N=C(\c1ccc(C(=O)N2CCc3c(sc4c3C(c3ccccc3Cl)=NC(C)c3nnc(C)n3-4)C2)cc1)c1cccnc1 (stereo unspecified) | 0.5 mg/kg |
| CCOC(=O)CCCCO/N=C(/c1cccnc1)c1cccc(CN2CCc3c(sc4c3C(c3ccccc3Cl)=NC(C)c3nnc(C)n3-4)C2)c1 (stereo unspecified) | > 10 mg/kg |
| CCOC(=O)CCCCO/N=C(/c1cccnc1)c1cccc(C(=O)N2CCc3c(sc4c3C(c3ccccc3Cl)=NC(C)c3nnc(C)n3-4)C2)c1 (stereo unspecified) | 2.3 mg/kg |
| CCOC(=O)CCCCO/N=C(\c1ccc(COCC(=O)N2CCc3c(sc4c3C(c3ccccc3Cl)=NC(C)c3nnc(C)n3-4)C2)cc1)c1cccnc1 (stereo unspecified) | > 10 mg/kg |
| CCOC(=O)CCCCO/N=C(\c1ccc(CC(=O)N2CCc3c(sc4c3C(c3ccccc3Cl)=NC(C)c3nnc(C)n3-4)C2)cc1)c1cccnc1 (stereo unspecified) | > 10 mg/kg |
| CCOC(=O)CCCC/C=C(/c1cccnc1)c1cccc(CN2CCc3c(sc4c3C(c3ccccc3Cl)=NC(C)c3nnc(C)n3-4)C2)c1 (stereo unspecified) | > 10 mg/kg |

ED50 reading for CCOC(=O)CCCCO/N=C(/c1cccnc1)c1cccc(CCCCN2CCc3c(sc4c3C(c3ccccc3Cl)=NC(C)c3nnc(C)n3-4)C2)c1 (stereo unspecified) : > 10 mg/kg

ED50 reading for CCCNC(=O)CCCCO/N=C(/c1cccnc1)c1cccc(CN2CCc3c(sc4c3C(c3ccccc3Cl)=NC(C)c3nnc(C)n3-4)C2)c1 (stereo unspecified) : > 10 mg/kg

ED50 reading for CCOC(=O)CCCCO/N=C(/c1cccnc1)c1cccc(CCCC(=O)N2CCc3c(sc4c3C(c3ccccc3Cl)=NC(C)c3nnc(C)n3-4)C2)c1 (stereo unspecified) : > 10 mg/kg
